Test system: Yersinia pseudotuberculosis;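 also: lowest concentration where monotonic median growth AUC falls below 0.75 of drug-free control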
MEASUREMENT_DESCRIPTION: IC25 growth inhibition; higher = less potent
Please respond with reported IC25 growth inhibition for every item in the list.

Recorded IC25 growth inhibition of C[C@@H](O[C@H]1OCCN(Cc2n[nH]c(=O)[nH]2)[C@H]1c1ccc(F)cc1)c1cc(C(F)(F)F)cc(C(F)(F)F)c1 [Aprepitant] , please.
> 80 µM

Same lookup for CNCCC(Oc1ccc(C(F)(F)F)cc1)c1ccccc1 (centres undefined) , please.
≤ 160 µM

Same lookup for CN(N=O)C(=O)N[C@@H](C=O)[C@@H](O)[C@H](O)[C@H](O)CO , please.
≤ 2.5 µM

Same lookup for O=C1CCc2ccc(OCCCCN3CCN(c4cccc(Cl)c4Cl)CC3)cc2N1 , please.
> 40 µM
